Target: Dihydroorotate dehydrogenase (quinone), mitochondrial (Plasmodium falciparum (isolate 3D7)) (UniProt Q08210)
Sequence (Q08210 whole entry, looked up): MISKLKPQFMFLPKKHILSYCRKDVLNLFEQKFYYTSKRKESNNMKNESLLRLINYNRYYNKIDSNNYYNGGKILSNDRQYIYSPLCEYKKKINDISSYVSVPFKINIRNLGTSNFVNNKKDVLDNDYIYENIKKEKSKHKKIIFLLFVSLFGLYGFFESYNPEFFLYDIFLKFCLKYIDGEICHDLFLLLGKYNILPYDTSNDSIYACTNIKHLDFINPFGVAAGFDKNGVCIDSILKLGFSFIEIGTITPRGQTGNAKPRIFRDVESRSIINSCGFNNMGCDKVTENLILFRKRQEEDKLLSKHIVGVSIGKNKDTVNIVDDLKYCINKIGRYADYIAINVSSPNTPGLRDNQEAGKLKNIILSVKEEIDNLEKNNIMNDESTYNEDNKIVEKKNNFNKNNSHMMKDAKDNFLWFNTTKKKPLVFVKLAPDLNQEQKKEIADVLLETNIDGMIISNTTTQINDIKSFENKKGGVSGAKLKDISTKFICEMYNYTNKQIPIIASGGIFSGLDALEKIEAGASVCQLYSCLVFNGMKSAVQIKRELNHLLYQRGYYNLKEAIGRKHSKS
Experiment: PfDHODH enzyme inhibitors, primary screen, biochemical, C-terminal His tag, absorbance 600 nm (AID 1175);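 further: recombinant parasite enzyme with a five histidine tag at its C terminus; test concentration not given here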
Details: DCIP absorbance 600 nm, higher = more signal, called active from +8 up or from −8 down
Listing of recorded composite z-score by entry.
Would you mind answering with just the numeric figure?

See these solved cases before continuing.
INSERT INTO results (compound, val) VALUES
  ('CCOC(=O)CCN1C(=O)[C@H]2[C@H]3[C@H](O)[C@H](O)CC(=NO[C@@H]4O[C@H](CO)[C@@H](O)[C@H](O)[C@H]4O)[C@H]3CC[C@H]2C1=O', 0.29),
  ('CO[C@@H](C(C)C)[C@@H](C)C1OC(=O)CC1O (stereo partly specified)', -0.531),
  ('CCOC(=O)[C@H](Cc1ccccc1)NC(=O)CCC1CC(OC(=O)NCc2cccc3ccccc23)CC2(CCCC(COC(=O)NCCc3ccccc3OC)O2)O1 (stereo partly specified)', -0.561);

Query (compound): CCOC(=O)[C@H](CC(C)C)NC(=O)CCC1CC(OC(=O)NCCc2ccc(F)cc2)CC2(CCCC(COC(=O)NCc3cccc4ccccc34)O2)O1 (stereo partly specified) ; field requested: composite z-score
0.0103

Query (compound): CC(C)=NO[C@H](C)c1cn([C@@H]2COC[C@H]2O)nn1 ; field requested: composite z-score
0.0741

Query (compound): CCN1C(=O)[C@H]2[C@H]3[C@H](O)[C@H](O)CC(=NOC(C)CN4CCCc5nc(C)c(C)cc54)[C@@H]3CC[C@H]2C1=O (stereo partly specified) ; field requested: composite z-score
0.988

Query (compound): CO[C@@H]1C=CCC(=O)N[C@@H](C)C(=O)OC[C@@H](OC)[C@H](C)C=CCC(=O)OC[C@H]1C ; field requested: composite z-score
-0.765

* * *

Tested on: Noggin (protein binding on small-molecule microarray)
Test: Noggin binders on small-molecule microarray, primary screen, biochemical, 635/667 nm fluorescence (AID 1095);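 further: score merges 667 nm feature fluorescence with signal to noise over triplicate slides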
Conditions: 635 nm fluorescence, higher = more signal
Listing of recorded composite z-score by entry.
Would you mind answering with just the numeric figure?

Query (compound): COc1ccc(COC(=O)NN=C2C[C@@H](O)[C@@H](O)[C@@H]3[C@@H]4C(=O)N(C[C@@H]5CCCO5)C(=O)[C@@H]4CC[C@@H]23)cc1 ; field requested: composite z-score
0.585

Query (compound): CC(=O)OC[C@H]1O[C@H](CCON=C(C)C)C=C[C@@H]1OC(C)=O ; field requested: composite z-score
0.373

Query (compound): CCOC(=O)[C@H](CC(C)C)NC(=O)CCC1CC(OC(=O)NCc2ccc3c(c2)OCO3)CC2(CCCC(COC(=O)NCc3ccccc3)O2)O1 (stereo not given in full) ; field requested: composite z-score
0.684

Query (compound): CC(C)[C@@H](OCc1ccccc1)[C@H](C)C=NO[C@@H](C)c1cn([C@H](CO)Cc2ccccc2)nn1 ; field requested: composite z-score
0.803

Query (compound): CC(=O)OC[C@H]1O[C@H](CCON=C(C)CCN2CCCc3nc(C)c(C)cc32)C=C[C@@H]1OC(C)=O ; field requested: composite z-score
0.754

Query (compound): CCOC(=O)[C@H](Cc1ccccc1)NC(=O)CCC1CC(OC(=O)NCc2ccc3c(c2)OCO3)CC2(CCCC(COC(=O)NCCOC)O2)O1 (stereo not given in full) ; field requested: composite z-score
0.884

Query (compound): COC(=O)[C@H](C)NC(=O)CCC1CC(OC(=O)NCCc2ccc(F)cc2)CC2(CCCC(COC(=O)NCC3CCCCC3)O2)O1 (stereo not given in full) ; field requested: composite z-score
0.883

Query (compound): CC(C)=CCCC(C)=CCON=C1C[C@@H](O)[C@@H](O)[C@@H]2[C@@H]3C(=O)N([C@@H](C)c4ccccc4)C(=O)[C@@H]3CC[C@@H]12 ; field requested: composite z-score
0.331
